- SYSTEM_NAME: UniProtKB P30542
- Sequence (P30542 whole entry): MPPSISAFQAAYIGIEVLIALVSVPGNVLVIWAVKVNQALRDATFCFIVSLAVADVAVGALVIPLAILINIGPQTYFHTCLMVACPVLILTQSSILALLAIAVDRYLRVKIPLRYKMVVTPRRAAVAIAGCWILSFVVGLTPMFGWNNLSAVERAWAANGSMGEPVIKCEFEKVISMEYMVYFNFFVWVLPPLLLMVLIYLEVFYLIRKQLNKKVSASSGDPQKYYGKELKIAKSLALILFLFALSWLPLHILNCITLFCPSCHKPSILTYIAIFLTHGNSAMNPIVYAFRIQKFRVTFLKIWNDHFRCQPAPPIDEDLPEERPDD
- ASSAY_NAME: Displacement of [3H]DPCPX from human adenosine A1 receptor expressed in CHO cell membranes at 1 uM after 120 mins by scintillation counting method relative to control
Hi, to clarify the labels: 1 (yes) covers inhibition from 20% upward, 0 (no) covers anything below 20%.

Some solved entries appear below for comparison.
>  <COMPOUND_STRING>
O=C(Nc1nc(-c2ccccc2)cn2cc(-c3ccccc3)nc12)c1cccnc1

>  <SYSTEM_NAME>
UniProtKB P30542

>  <CAT>
0 (no)

$$$$
>  <COMPOUND_STRING>
O=C(Nc1nccn2cc(-c3ccccc3)nc12)c1ccco1

>  <SYSTEM_NAME>
UniProtKB P30542

>  <CAT>
1 (yes)

$$$$
>  <COMPOUND_STRING>
Nc1nc(-c2ccc(OCc3ccccc3)cc2)cn2cc(-c3ccccc3)nc12

>  <SYSTEM_NAME>
UniProtKB P30542

>  <CAT>
0 (no)

$$$$
>  <COMPOUND_STRING>
O=C(Nc1nc(-c2ccccc2)cn2cc(-c3ccccc3)nc12)c1cccs1

>  <SYSTEM_NAME>
UniProtKB P30542

>  <CAT>
0 (no)

$$$$
>  <COMPOUND_STRING>
Nc1nc(-c2cccc(C(=O)O)c2)cn2cc(-c3ccccc3)nc12

>  <SYSTEM_NAME>
UniProtKB P30542

>  <CAT>
0 (no)

$$$$
>  <COMPOUND_STRING>
O=C(Nc1nccn2cc(-c3ccccc3)nc12)c1ccccc1

>  <SYSTEM_NAME>
UniProtKB P30542

>  <CAT>
0 (no)

$$$$
>  <COMPOUND_STRING>
O=C(c1ccccc1)N(C(=O)c1ccccc1)c1nccn2cc(-c3ccccc3)nc12

>  <SYSTEM_NAME>
UniProtKB P30542

>  <CAT>
0 (no)

$$$$
>  <COMPOUND_STRING>
COc1cccc(-c2cn3cc(-c4ccccc4)nc3c(N)n2)c1

>  <SYSTEM_NAME>
UniProtKB P30542

>  <CAT>
1 (yes)

$$$$

Evaluate COc1ccc(C(=O)Nc2nc(-c3ccccc3)cn3cc(-c4ccccc4)nc23)cc1 : inhibition at minimum 20%?
0 (no)

Test whether the compound O=C(Nc1nc(-c2ccccc2)cn2cc(-c3ccccc3)nc12)c1ccco1 records inhibition of 20% or higher.
0 (no)

====

- SYSTEM_NAME: Adenosine receptor A1 (Homo sapiens)
- ASSAY_NAME: Displacement of [3H]DPCPX from human adenosine A1 receptor expressed in CHO cell membranes at 1 uM after 120 mins by scintillation counting method relative to control
Can you tell me inhibition for the items I'm about to list?
Numbers only, in %.

Worked set:
>  <COMPOUND_STRING>
COc1ccc(-c2cn3cc(-c4ccccc4)nc3c(N)n2)cc1

>  <EXPERIMENTAL_VALUE>
20

$$$$
>  <COMPOUND_STRING>
O=C(Cc1ccccc1)Nc1nccn2cc(-c3ccccc3)nc12

>  <EXPERIMENTAL_VALUE>
46

$$$$
>  <COMPOUND_STRING>
O=C(Nc1nccn2cc(-c3ccccc3)nc12)c1cccnc1

>  <EXPERIMENTAL_VALUE>
24

$$$$
>  <COMPOUND_STRING>
Nc1nccn2cc(-c3ccccc3)nc12

>  <EXPERIMENTAL_VALUE>
30

$$$$

Each molecule below has a reported value. Please supply its inhibition.
1. COc1ccc(-c2cn3ccnc(NC(=O)c4ccccc4)c3n2)cc1
2. COc1ccc(-c2cn3cc(Br)nc(N)c3n2)cc1

1: 1; 2: 29
